Every entry's value here was drawn from patent US20230365649A1.

# TEST SYSTEM: T1, KRAS wild type (WT 25-mer) peptide on HLA-DQA1*05:01 / HLA-DQB1*03:01 (human)
# T1 peptide: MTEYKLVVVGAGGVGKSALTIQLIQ
# ASSAY NAME: cytokine release
MEASUREMENT LABEL: binding result

## Task Entry under review: 4400 TCR-A1 (TCR, V domains shown) Valpha: QKEVEQDPGPLSVPEGAIVSLNCTYSNSAFQYFMWYRQYSRKGPELLMYTYSSGNKEDGRFTAQVDKSSKYISLFIRDSQPSDSATYLCAMRANTDKLIFGTGTRLQVFP Vbeta: DVKVTQSSRYLVKRTGEKVFLECVQDMDHENMFWYRQDPGLGLRLIYFSYDVKMKEKGDIPEGYSVSREKKERFSLILESASTNQTSMYLCASRLGNTGELFFGEGSRLTVL . Reported binding result?
## Result no recognition

## Task Another binder to look at: 4400 TCR-A2 (TCR, V domains shown) Valpha: QKEVEQDPGPLSVPEGAIVSLNCTYSNSAFQYFMWYRQYSRKGPELLMYTYSSGNKEDGRFTAQVDKSSKYISLFIRDSQPSDSATYLCAMRANTDKLIFGTGTRLQVFP Vbeta: DVKVTQSSRYLVKRTGEKVFLECVQDMDHENMFWYRQDPGLGLRLIYFSYDVKMKEKGDIPEGYSVSREKKERFSLILESASTNQTSMYLCASRQGNTGELFFGEGSRLTVL
## Result no recognition
